B1: ZNF207 (parent)
chain: YQGGPPRPPMGMRPPVMSQGGRY

# Variants of: B1
# Assay Method Text: protein stability index of a GFP-peptide fusion (GPS, HEK-293T) (PSI 1-6); higher = more stable;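 note: lentivirally expressed fusions sorted by FACS into six bins by GFP to DsRed ratio, PSI derived from sequencing read proportions per bin multiplied by bin number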
# Test Context: c terminus: native
Parameter: protein stability index
Form field (numeric): enter value without unit.

Y23V
1.5

### Prompt Provide only the value of recorded protein stability index for `P8K`
### Response 2.35

### Prompt # return recorded protein stability index for input `P9I`
### Response 2.91

### Prompt Please report the measured protein stability index for `P9N`
### Response 1.44

### Prompt Give reported protein stability index value for `Q19L`
### Response 1.46

### Prompt Please give the documented protein stability index of `M12R`
### Response 1.35

### Prompt Assign protein stability index to the following record: `G21R`
### Response 2.27

Reference source: the supplement of paper PMC10567573
